procedure text: Biodistribution studies in NMRI mice
Format: in vivo
test settings: i.v., 2 min p.i.
Experimental: The biodistribution studies were performed in wild-type NMRI mice with body weights ranging from 30 to 40 g. Mice were intravenously injected with 0.1 MBq of ^18F]-(3) or ^18F]-(5) and 5.5 MBq of ^11C]-(4) or ^11C]-(6) under anesthesia (2% isoflurane in O2 at a flow rate of 1 L/min). The animals were killed by decapitation at 2 min or 60 min p.i. (n = 4/time point for ^18F]-(3), ^11C]-(4), and ^11C]-(6); n = 6 for ^18F]-(5)). […]
property name: SUV, liver

Worked examples follow.
query: Tell me the measured SUV, liver of [11CH3]Oc1ccc(S(N)(=O)=O)cc1 [[^11C]-(6), 4-[^11C]methoxybenzene sulfonamide] , please.
result: 1.5 ± 0.1

query: Value lookup for SUV, liver; key = NS(=O)(=O)c1ccc(OCC[18F])cc1 [[^18F]-(5)]
result: 1.4 ± 0.3

query: I am curious: what SUV, liver value has been reported for [11CH3]Oc1ccc(C(=O)NCCc2ccc(S(N)(=O)=O)cc2)cc1 [[^11C]-(4)] ?
result: 1.5 ± 0.2

Please turn your attention to the following entry.
query: Quick one: SUV, liver for NS(=O)(=O)c1ccc(CCNC(=O)c2ccc(OCC[18F])cc2)cc1 [[^18F]-(3)] ?
result: 3.2 ± 0.2

Where these numbers come from: paper PMC3561128
